Listed here: items and their measured kon.
Biological target: T1, Human CD19-his protein (human, UniProt P15391 20-291)
T1 construct: bought protein; also called recombinant human CD19-His; CD19 full-length protein; not shown: His tag
T1 sequence (looked up): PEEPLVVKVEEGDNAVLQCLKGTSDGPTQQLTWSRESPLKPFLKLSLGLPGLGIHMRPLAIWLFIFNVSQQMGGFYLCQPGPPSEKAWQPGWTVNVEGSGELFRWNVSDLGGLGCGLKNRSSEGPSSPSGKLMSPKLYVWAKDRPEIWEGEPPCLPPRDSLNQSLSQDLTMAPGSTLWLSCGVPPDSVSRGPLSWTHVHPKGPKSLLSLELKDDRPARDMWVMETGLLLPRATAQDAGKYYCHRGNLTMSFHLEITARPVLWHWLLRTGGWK
Test: SPR Biacore, Ab captured on Protein A, CD19-His analyte
Give just the numeric value; M⁻¹ s⁻¹ need not be written.

• F3.83.9 (antibody, human IgG1, V domains shown, human-murine chimeric antibody, human IgG1 constant) VH: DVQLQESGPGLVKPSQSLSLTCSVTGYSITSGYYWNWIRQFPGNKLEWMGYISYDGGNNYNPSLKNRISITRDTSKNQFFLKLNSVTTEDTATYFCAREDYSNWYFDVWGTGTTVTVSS VL: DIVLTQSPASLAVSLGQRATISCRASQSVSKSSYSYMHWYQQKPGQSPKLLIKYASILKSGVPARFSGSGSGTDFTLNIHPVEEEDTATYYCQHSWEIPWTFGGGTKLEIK = 85100

### Prompt Entry under review: F4.180.1 (antibody, human IgG1, V domains shown, human-murine chimeric antibody, human IgG1 constant) VH: EVQLQQSAPELVKPGASVKMSCKTSGYTFTENIIHWVKQTHGKSLEWIGGINPDNGGTSYHQKFKGRTTLTIDKSSSTAYMELRSLTSDDSAVFFCARQAPLYWYFDIWGAGTTVTVSS VL: DIVLTQSPASLAVSLGQRATISCRASESVDSYGNSLMHWFQQKPGQPPRLLIYRASNLESGIPARFSGSGSRTDFTLTITPVEADDVATYYCQQSNEDPWTFGGGTKLEIK . Reported kon?
### Response 237000

### Prompt What do we get for F3.40.14 (antibody, human IgG1, V domains shown, human-murine chimeric antibody, human IgG1 constant) VH: QAQLQQSGPELVKPGASVKISCKASGYAFSGSWMNWVQQRPGKGLEWIGRIYPGDGDTYYSGKFKDKAILTADTSSSTAYMQLSSLTSEDSAVYFCAQLRSRYVMDYWGQGASVTVSS VL: DIVLTQSPASLAVSLGQRATISCRASESVSIHGTHLMHWYQQKPGQPPRLLIYAASNLESGVPARFSGSGSETDFTLNIHPVEEEDAATYFCQQGIDDPYTFGGGTKLEIK ?
### Response 84300
